Each recorded value in this set is attributed to ChEMBL document CHEMBL3988442.

- Target System: Proteasome subunit beta (Trypanosoma cruzi)
- Sequence (whole entry): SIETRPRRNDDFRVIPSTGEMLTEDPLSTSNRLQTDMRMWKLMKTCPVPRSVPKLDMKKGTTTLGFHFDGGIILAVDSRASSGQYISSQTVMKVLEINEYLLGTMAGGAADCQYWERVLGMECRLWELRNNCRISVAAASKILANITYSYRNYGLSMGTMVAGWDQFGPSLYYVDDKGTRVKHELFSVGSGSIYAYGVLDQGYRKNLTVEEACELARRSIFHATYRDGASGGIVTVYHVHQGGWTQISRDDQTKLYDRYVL
- Assay Info: Trypanosoma cruzi proteasome chymotrypsin-like activity (TcProtChymo) assay.
- Type: functional
- Set-up: scale not given: in the data most compounds retested in dose-response had high values
- Applied Conditions: 9.37 µM
Assign Criterion met to entries whose Percent Effect meets or exceeds 10%; assign Criterion not met to the rest.

Is the recorded value of Percent Effect equal to or greater than 10% for this molecule? O=C(NCC1CCN(C(=O)c2ccoc2)CC1)c1ccccc1Br
Criterion met

Is the recorded value of Percent Effect equal to or greater than 10% for this molecule? COCC(=O)N1CC[C@@H]2O[C@@H](COCc3csc(C)n3)CC[C@@H]21
Criterion met

Is the recorded value of Percent Effect equal to or greater than 10% for this molecule? CC(NCc1ccccc1Br)c1ccc2[nH]c(=O)[nH]c2c1 (centres undefined)
Criterion not met

Is the recorded value of Percent Effect equal to or greater than 10% for this molecule? CC(C(N)=O)N(C)CCCc1cc(-c2ccccc2)no1 (centres undefined)
Criterion not met

Is the recorded value of Percent Effect equal to or greater than 10% for this molecule? O=C(NCCCOCC1CCCO1)c1cccnc1N1CCCC1 (centres undefined)
Criterion met

Is the recorded value of Percent Effect equal to or greater than 10% for this molecule? CN1CCC(c2cccc(Cc3ccc(F)cc3)n2)CC1
Criterion not met

Is the recorded value of Percent Effect equal to or greater than 10% for this molecule? Cc1cccc(CN2C[C@H]3OC(=O)N(CCCN4CCOCC4)[C@H]3C2)n1
Criterion met

Is the recorded value of Percent Effect equal to or greater than 10% for this molecule? CCOc1cc(C)nc(N2CCN(C(=O)c3ccnn3C)CC2)n1
Criterion not met

Is the recorded value of Percent Effect equal to or greater than 10% for this molecule? Cc1cnc(C(=O)N2CCCN(Cc3csc(C)n3)CC2)cn1
Criterion met

Is the recorded value of Percent Effect equal to or greater than 10% for this molecule? CCc1nc(CN2CCCC(N(C)Cc3cnc(C)s3)C2)no1 (centres undefined)
Criterion met

Is the recorded value of Percent Effect equal to or greater than 10% for this molecule? CCN1CCN(c2ccc(F)cc2C(C)NCc2ccncc2)CC1 (centres undefined)
Criterion not met

Is the recorded value of Percent Effect equal to or greater than 10% for this molecule? Cc1nccnc1N1CCC2(CCCN(C3CCOCC3)C2=O)C1 (centres undefined)
Criterion not met

Is the recorded value of Percent Effect equal to or greater than 10% for this molecule? c1ncn(CC2CN(CC3CCCC3)CCO2)n1 (centres undefined)
Criterion met

Is the recorded value of Percent Effect equal to or greater than 10% for this molecule? CC(C)NC(=O)N1CCc2nc(C(=O)NCc3ccccc3)sc2CC1
Criterion met

Is the recorded value of Percent Effect equal to or greater than 10% for this molecule? COc1ncccc1C(=O)NCC(C)Oc1cccnc1 (centres undefined)
Criterion not met

Is the recorded value of Percent Effect equal to or greater than 10% for this molecule? Cc1cccc(N2CCN(CCNC(=O)C(C)n3cncn3)CC2)c1 (centres undefined)
Criterion met

Is the recorded value of Percent Effect equal to or greater than 10% for this molecule? CC(=O)c1cccc(S(=O)(=O)N2CSCC2C(=O)NCC(F)(F)F)c1 (centres undefined)
Criterion met

Is the recorded value of Percent Effect equal to or greater than 10% for this molecule? Cc1ncc(CNCC2CCCN2c2cccnn2)s1 (centres undefined)
Criterion met

Is the recorded value of Percent Effect equal to or greater than 10% for this molecule? CN(Cc1nnc(C2CC2)n1C)C1CCN(Cc2ccon2)C1 (centres undefined)
Criterion met

Is the recorded value of Percent Effect equal to or greater than 10% for this molecule? O=C(c1cncc(N2CCC(O)(CO)CC2)n1)N1CCCC1
Criterion met

Is the recorded value of Percent Effect equal to or greater than 10% for this molecule? Cc1cc(C(=O)N2CCCCC2C)ccc1NCC(=O)N1CCOCC1 (centres undefined)
Criterion met

Is the recorded value of Percent Effect equal to or greater than 10% for this molecule? CC(C)(C)NC(=O)C1CSCN1S(=O)(=O)c1cccc(F)c1 (centres undefined)
Criterion met

Is the recorded value of Percent Effect equal to or greater than 10% for this molecule? Cc1noc(C2CCCN(C(=O)c3ccc(Br)o3)C2)n1 (centres undefined)
Criterion met

Is the recorded value of Percent Effect equal to or greater than 10% for this molecule? O=C(NCCCn1cncn1)NCC(c1ccco1)N1CCCCC1 (centres undefined)
Criterion met
